Reported pKd values are given for each entry in this list.
biological target: CB1 receptor (UniProt P21554)
Remember, pKd is on a log scale: it is -log10 of the molar concentration.

Example entries begin here.
| MOLECULE | REPORTED |
| --- | --- |
| CC1=CCC2C(C1)c1c(O)cc(C(C)(C)CCCCNS(=O)(=O)c3ccccc3)cc1OC2(C)C (centres unmarked) [Compound O-2048] | 8.39 |
| CCCCS(=O)(=O)NCCCC#CCc1cc(O)c2c(c1)OC(C)(C)C1CC=C(C)CC21 (centres unmarked) [Compound O-1993] | 7.15 |
| CC1=CCC2C(C1)c1c(O)cc(CC#CCCCNS(C)(=O)=O)cc1OC2(C)C (centres unmarked) [Compound O-2050] | 8.60 |
| CCS(=O)(=O)NCCCCC(C)(C)c1cc(O)c2c(c1)OC(C)(C)C1CC=C(C)CC21 (centres unmarked) [Compound O-2113] | 8.77 |

Exam item: Field request: pKd | item: CCS(=O)(=O)NCCCC#CCc1cc(O)c2c(c1)OC(C)(C)C1CC=C(C)CC21 (centres unmarked) [Compound O-1991]
Marked response: 7.70

----------
biological target: CB2 receptor (Homo sapiens, UniProt P34972); experiment: CB2 receptor affinity assay; format: binding
Sequence (P34972 whole entry): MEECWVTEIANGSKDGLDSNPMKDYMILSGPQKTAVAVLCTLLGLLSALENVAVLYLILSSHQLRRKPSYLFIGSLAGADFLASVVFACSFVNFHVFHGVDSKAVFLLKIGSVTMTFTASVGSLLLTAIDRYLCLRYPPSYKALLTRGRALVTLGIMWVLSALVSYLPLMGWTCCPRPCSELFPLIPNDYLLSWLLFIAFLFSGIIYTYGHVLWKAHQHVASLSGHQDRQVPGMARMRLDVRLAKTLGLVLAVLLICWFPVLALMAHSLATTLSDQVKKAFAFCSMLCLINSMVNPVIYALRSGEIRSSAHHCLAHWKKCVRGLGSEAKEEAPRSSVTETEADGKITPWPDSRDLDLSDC
ASSAY METRIC: CB2 receptor affinity (in words)

| MOLECULE | REPORTED |
| --- | --- |
| CC1=CCC2C(C1)c1c(O)cc(C(C)(C)CCCCNS(=O)(=O)c3ccccc3)cc1OC2(C)C (centres unmarked) | high affinity |
| CC1=CCC2C(C1)c1c(O)cc(CC#CCCCNS(C)(=O)=O)cc1OC2(C)C (centres unmarked) | high affinity |
| CCS(=O)(=O)NCCCCC(C)(C)c1cc(O)c2c(c1)OC(C)(C)C1CC=C(C)CC21 (centres unmarked) | high affinity |
| CCS(=O)(=O)NCCCC#CCc1cc(O)c2c(c1)OC(C)(C)C1CC=C(C)CC21 (centres unmarked) | high affinity |

----------
target: CB1 receptor (UniProt P21554); assay: CB1 receptor affinity assay; assay type: binding
ASSAY METRIC: CB1 receptor affinity (in words)

Example entries begin here.
| COMPOUND | CB1 receptor affinity (in words) |
| --- | --- |
| CCCCS(=O)(=O)NCCCC#CCc1cc(O)c2c(c1)OC(C)(C)C1CC=C(C)CC21 (centres unmarked) [Compound O-1993] | moderate affinity |
| CC1=CCC2C(C1)c1c(O)cc(CC#CCCCNS(C)(=O)=O)cc1OC2(C)C (centres unmarked) [Compound O-2050] | high affinity |
| CCS(=O)(=O)NCCCCC(C)(C)c1cc(O)c2c(c1)OC(C)(C)C1CC=C(C)CC21 (centres unmarked) [Compound O-2113] | high affinity |
| CCS(=O)(=O)NCCCC#CCc1cc(O)c2c(c1)OC(C)(C)C1CC=C(C)CC21 (centres unmarked) [Compound O-1991] | moderate affinity |

Below: the item to evaluate.
Exam item: Query CB1 receptor affinity (in words) on CB1 receptor (UniProt P21554) for CC1=CCC2C(C1)c1c(O)cc(C(C)(C)CCCCNS(=O)(=O)c3ccccc3)cc1OC2(C)C (centres unmarked) [Compound O-2048]
Marked response: high affinity
